Listed molecules paired with reported MIC
System: Fusarium solani
Experiment: Antifungal activity against Fusarium solani by agar well diffusion method
Type: functional
The answer is to be given in µg/mL; state only the numeric part.

Answered examples (8):
molecule=N#Cc1ccc(NC(=O)Nc2ccc(-c3cc(Nc4cccc(C(F)(F)F)c4)ncn3)cc2)cc1 reported_property=MIC reported_result=75
molecule=O=C(Nc1ccc(-c2cc(Nc3cccc(C(F)(F)F)c3)ncn2)cc1)Nc1cccc(C(F)(F)F)c1 reported_property=MIC reported_result=20
molecule="Clc1ccc(COC(Cn2ccnc2)c2ccc(Cl)cc2Cl)c(Cl)c1 (centres undefined)" reported_property=MIC reported_result=15
molecule=COc1cccc(NC(=O)Nc2ccc(-c3cc(Nc4cccc(C(F)(F)F)c4)ncn3)cc2)c1 reported_property=MIC reported_result=20
molecule=FC(F)(F)c1cccc(Nc2cc(-c3ccc(NC(=S)Nc4cc(C(F)(F)F)cc(C(F)(F)F)c4)cc3)ncn2)c1 reported_property=MIC reported_result=75
molecule=CSc1ccc(NC(=O)Nc2ccc(-c3cc(Nc4cccc(C(F)(F)F)c4)ncn3)cc2)cc1 reported_property=MIC reported_result=90
molecule=COc1ccc(NC(=S)Nc2ccc(-c3cc(Nc4cccc(C(F)(F)F)c4)ncn3)cc2)cc1 reported_property=MIC reported_result=90
molecule=N#Cc1cccc(NC(=S)Nc2ccc(-c3cc(Nc4cccc(C(F)(F)F)c4)ncn3)cc2)c1 reported_property=MIC reported_result=20

**Q:** I am curious: what MIC value has been reported for N#Cc1cccc(S(=O)(=O)Nc2ccc(-c3cc(Nc4cccc(C(F)(F)F)c4)ncn3)cc2)c1 ?
**A:** 20
